- System: 922993-354-T-J3-PDC complex spheroids, viability, % test/control
- protocol_details: Anticancer human tumor 922993-354-T-J3-PDC patient-derived endometrial carcinoma cell line growth inhibition [CLK]; active = viability on the fitted dose curve at most 10% of control; inactive = the rest
- measurement_conditions: second compound 1 µM; first compound 1 µM
Outcomes: true (active), false (inactive)

molecule	assigned_category
C=CC(=O)N1CCN(c2nc(=O)n(-c3c(C)ccnc3C(C)C)c3nc(-c4c(O)cccc4F)c(F)cc23)C(C)C1 (configuration not stated) + CNC(=O)c1ccc(Nc2nc(OC3CCCC3)c3c(-c4ccc5nc(C)oc5c4)c[nH]c3n2)c(OC)c1	false
C#Cc1c(F)ccc2cc(O)cc(-c3ncc4c(N5CC6CCC(C5)N6)nc(OCC56CCCN5CC(F)C6)nc4c3F)c12 (configuration not stated) + CN1CCN(c2cc(C(=O)Nc3cc4cc(-c5cnn(C)c5)ccc4cn3)ccn2)CC1	true
O=C(c1cc(Cc2n[nH]c(=O)c3ccccc23)ccc1F)N1CCN(C(=O)C2CC2)CC1 + CN1CCN(c2cc(C(=O)Nc3cc4cc(-c5cnn(C)c5)ccc4cn3)ccn2)CC1	true
CC1(C)CCC(CN2CCN(c3ccc(C(=O)NS(=O)(=O)c4ccc(NCC5CCOCC5)c([N+](=O)[O-])c4)c(Oc4cnc5[nH]ccc5c4)c3)CC2)=C(c2ccc(Cl)cc2)C1 + CNC(=O)c1ccc(Nc2nc(OC3CCCC3)c3c(-c4ccc5nc(C)oc5c4)c[nH]c3n2)c(OC)c1	false
COc1c(OCCCN2CCOCC2)ccc2c3n(c(=NC(=O)c4cnc(N)nc4)nc12)CCN3 + CN1CCN(c2cc(C(=O)Nc3cc4cc(-c5cnn(C)c5)ccc4cn3)ccn2)CC1	true
CC(=O)O[C@H]1C(=O)[C@@]2(C)[C@H]([C@H](OC(=O)c3ccccc3)[C@]3(O)C[C@H](OC(=O)[C@H](O)[C@@H](NC(=O)c4ccccc4)c4ccccc4)C(C)=C1C3(C)C)[C@]1(OC(C)=O)CO[C@@H]1C[C@@H]2O + CNC(=O)c1ccc(Nc2nc(OC3CCCC3)c3c(-c4ccc5nc(C)oc5c4)c[nH]c3n2)c(OC)c1	false
CC1(C)CCC(CN2CCN(c3ccc(C(=O)NS(=O)(=O)c4ccc(NCC5CCOCC5)c([N+](=O)[O-])c4)c(Oc4cnc5[nH]ccc5c4)c3)CC2)=C(c2ccc(Cl)cc2)C1 + CN1CCN(c2cc(C(=O)Nc3cc4cc(-c5cnn(C)c5)ccc4cn3)ccn2)CC1	true

###

- System: 922993-354-T-J3-PDC complex spheroids, viability, % test/control
- protocol_details: Anticancer human tumor 922993-354-T-J3-PDC cell line growth inhibition [CLK];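 note: spheroids exposed to the agents for 7 days before readout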
- measurement_conditions: curve of first compound; second compound 0.1 µM
pIC50: −log10 of the molar value.

compound	pIC50
CC(CO)NC(=O)c1cc(-c2ccc(Cl)cc2)nn(-c2cnn(C)c2)c1=O (stereo not given) + CN1CCN(c2cc(C(=O)Nc3cc4cc(-c5cnn(C)c5)ccc4cn3)ccn2)CC1	< 5.00
CC(CO)NC(=O)c1cc(-c2ccc(Cl)cc2)nn(-c2cnn(C)c2)c1=O (stereo not given) + CNC(=O)c1ccc(Nc2nc(OC3CCCC3)c3c(-c4ccc5nc(C)oc5c4)c[nH]c3n2)c(OC)c1	< 5.00
Cn1ncnc1[C@H]1c2n[nH]c(=O)c3cc(F)cc(c23)N[C@@H]1c1ccc(F)cc1 + CN1CCN(c2cc(C(=O)Nc3cc4cc(-c5cnn(C)c5)ccc4cn3)ccn2)CC1	< 7.00
COc1ccc([C@@H](O)c2cc(-c3ncnc4cc(N5CCOCC5)ccc34)c(F)cc2Cl)nn1 + CN1CCN(c2cc(C(=O)Nc3cc4cc(-c5cnn(C)c5)ccc4cn3)ccn2)CC1	< 5.00
CCCS(=O)(=O)Nc1ccc(F)c(C(=O)c2c[nH]c3ncc(-c4ccc(Cl)cc4)cc23)c1F + CNC(=O)c1ccc(Nc2nc(OC3CCCC3)c3c(-c4ccc5nc(C)oc5c4)c[nH]c3n2)c(OC)c1	< 5.00

###

- Test system: 922993-354-T-J3-PDC complex spheroids, viability, % test/control
- protocol_details: Anticancer human tumor 922993-354-T-J3-PDC cell line growth inhibition [CLK];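 note: spheroids exposed to the agents for 7 days before readout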
- measurement_conditions: second compound 0.316 µM; first compound 3.16 µM; stronger effect = lower value

molecule	viability, T/C / %
C=CC(=O)N1CCN(c2nc(=O)n(-c3c(C)ccnc3C(C)C)c3nc(-c4c(O)cccc4F)c(F)cc23)C(C)C1 (configuration not stated) + CN1CCN(c2cc(C(=O)Nc3cc4cc(-c5cnn(C)c5)ccc4cn3)ccn2)CC1	41.4
CCCS(=O)(=O)Nc1ccc(F)c(C(=O)c2c[nH]c3ncc(-c4ccc(Cl)cc4)cc23)c1F + CN1CCN(c2cc(C(=O)Nc3cc4cc(-c5cnn(C)c5)ccc4cn3)ccn2)CC1	44.6
C=C(F)C(=O)N1CCN(c2nc(OCC3CCCN3C)nc3c2CCN(c2cccc4cccc(Cl)c24)C3)CC1CC#N (configuration not stated) + CNC(=O)c1ccc(Nc2nc(OC3CCCC3)c3c(-c4ccc5nc(C)oc5c4)c[nH]c3n2)c(OC)c1	57.4
CC1(C)CCC(CN2CCN(c3ccc(C(=O)NS(=O)(=O)c4ccc(NCC5CCOCC5)c([N+](=O)[O-])c4)c(Oc4cnc5[nH]ccc5c4)c3)CC2)=C(c2ccc(Cl)cc2)C1 + CNC(=O)c1ccc(Nc2nc(OC3CCCC3)c3c(-c4ccc5nc(C)oc5c4)c[nH]c3n2)c(OC)c1	64.4
CC1COCCN1c1cc(C2(S(C)(=N)=O)CC2)nc(-c2ccnc3[nH]ccc23)n1 (configuration not stated) + CN1CCN(c2cc(C(=O)Nc3cc4cc(-c5cnn(C)c5)ccc4cn3)ccn2)CC1	27.9
C#Cc1c(F)ccc2cc(O)cc(-c3ncc4c(N5CC6CCC(C5)N6)nc(OCC56CCCN5CC(F)C6)nc4c3F)c12 (configuration not stated) + CNC(=O)c1ccc(Nc2nc(OC3CCCC3)c3c(-c4ccc5nc(C)oc5c4)c[nH]c3n2)c(OC)c1	57.1
C=C(F)C(=O)N1CCN(c2nc(OCC3CCCN3C)nc3c2CCN(c2cccc4cccc(Cl)c24)C3)CC1CC#N (configuration not stated) + CN1CCN(c2cc(C(=O)Nc3cc4cc(-c5cnn(C)c5)ccc4cn3)ccn2)CC1	45.6

###

- Test system: 922993-354-T-J3-PDC complex spheroids, viability, % test/control
- protocol_details: Anticancer human tumor 922993-354-T-J3-PDC cell line growth inhibition [CLK];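 note: spheroids exposed to the agents for 7 days before readout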
- measurement_conditions: second compound 1 µM; first compound 0.316 µM; stronger effect = lower value
Recorded viability, T/C, one value per entry.

molecule	target_or_test_system	viability, T/C
O=c1[nH]cc(F)c(=O)[nH]1 + CNC(=O)c1ccc(Nc2nc(OC3CCCC3)c3c(-c4ccc5nc(C)oc5c4)c[nH]c3n2)c(OC)c1	922993-354-T-J3-PDC complex spheroids, viability, % test/control	33.7%
CC1(C)CCC(CN2CCN(c3ccc(C(=O)NS(=O)(=O)c4ccc(NCC5CCOCC5)c([N+](=O)[O-])c4)c(Oc4cnc5[nH]ccc5c4)c3)CC2)=C(c2ccc(Cl)cc2)C1 + CNC(=O)c1ccc(Nc2nc(OC3CCCC3)c3c(-c4ccc5nc(C)oc5c4)c[nH]c3n2)c(OC)c1	922993-354-T-J3-PDC complex spheroids, viability, % test/control	27.1%
C=C(F)C(=O)N1CCN(c2nc(OCC3CCCN3C)nc3c2CCN(c2cccc4cccc(Cl)c24)C3)CC1CC#N (stereo unspecified) + CN1CCN(c2cc(C(=O)Nc3cc4cc(-c5cnn(C)c5)ccc4cn3)ccn2)CC1	922993-354-T-J3-PDC complex spheroids, viability, % test/control	0.83%
C=C(F)C(=O)N1CCN(c2nc(OCC3CCCN3C)nc3c2CCN(c2cccc4cccc(Cl)c24)C3)CC1CC#N (stereo unspecified) + CNC(=O)c1ccc(Nc2nc(OC3CCCC3)c3c(-c4ccc5nc(C)oc5c4)c[nH]c3n2)c(OC)c1	922993-354-T-J3-PDC complex spheroids, viability, % test/control	32.7%
CC1(C)CCC(CN2CCN(c3ccc(C(=O)NS(=O)(=O)c4ccc(NCC5CCOCC5)c([N+](=O)[O-])c4)c(Oc4cnc5[nH]ccc5c4)c3)CC2)=C(c2ccc(Cl)cc2)C1 + CN1CCN(c2cc(C(=O)Nc3cc4cc(-c5cnn(C)c5)ccc4cn3)ccn2)CC1	922993-354-T-J3-PDC complex spheroids, viability, % test/control	0.19%
COc1ccc([C@@H](O)c2cc(-c3ncnc4cc(N5CCOCC5)ccc34)c(F)cc2Cl)nn1 + CNC(=O)c1ccc(Nc2nc(OC3CCCC3)c3c(-c4ccc5nc(C)oc5c4)c[nH]c3n2)c(OC)c1	922993-354-T-J3-PDC complex spheroids, viability, % test/control	40%

###

- Test system: 922993-354-T-J3-PDC complex spheroids, viability, % test/control
- protocol_details: Anticancer human tumor 922993-354-T-J3-PDC cell line growth inhibition [CLK]; active means viability on the fitted dose curve at most 10% of control; inactive means the rest;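 note: spheroids exposed to the agents for 7 days before readout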
- measurement_conditions: second compound 1 µM; first compound 10 µM
Outcomes: label 1 for active, label 0 for inactive

compound	assigned_category
O=c1[nH]cc(F)c(=O)[nH]1 + CN1CCN(c2cc(C(=O)Nc3cc4cc(-c5cnn(C)c5)ccc4cn3)ccn2)CC1	label 1
CC1(C)CCC(CN2CCN(c3ccc(C(=O)NS(=O)(=O)c4ccc(NCC5CCOCC5)c([N+](=O)[O-])c4)c(Oc4cnc5[nH]ccc5c4)c3)CC2)=C(c2ccc(Cl)cc2)C1 + CN1CCN(c2cc(C(=O)Nc3cc4cc(-c5cnn(C)c5)ccc4cn3)ccn2)CC1	label 1
O=C(c1cc(Cc2n[nH]c(=O)c3ccccc23)ccc1F)N1CCN(C(=O)C2CC2)CC1 + CN1CCN(c2cc(C(=O)Nc3cc4cc(-c5cnn(C)c5)ccc4cn3)ccn2)CC1	label 1
COC1C=CCC(C)C(C)S(=O)(=O)NC(=O)c2ccc3c(c2)N(CC2CCC21)CC1(CCCc2cc(Cl)ccc21)CO3 (stereo unspecified) + CNC(=O)c1ccc(Nc2nc(OC3CCCC3)c3c(-c4ccc5nc(C)oc5c4)c[nH]c3n2)c(OC)c1	label 0
COC1C=CCC(C)C(C)S(=O)(=O)NC(=O)c2ccc3c(c2)N(CC2CCC21)CC1(CCCc2cc(Cl)ccc21)CO3 (stereo unspecified) + CN1CCN(c2cc(C(=O)Nc3cc4cc(-c5cnn(C)c5)ccc4cn3)ccn2)CC1	label 1
CCCS(=O)(=O)Nc1ccc(F)c(C(=O)c2c[nH]c3ncc(-c4ccc(Cl)cc4)cc23)c1F + CN1CCN(c2cc(C(=O)Nc3cc4cc(-c5cnn(C)c5)ccc4cn3)ccn2)CC1	label 1
CC(Nc1ccc2c(c1)OCCn1cc(N3C(=O)OCC3C(F)F)nc1-2)C(N)=O (stereo unspecified) + CNC(=O)c1ccc(Nc2nc(OC3CCCC3)c3c(-c4ccc5nc(C)oc5c4)c[nH]c3n2)c(OC)c1	label 0
CC(CO)NC(=O)c1cc(-c2ccc(Cl)cc2)nn(-c2cnn(C)c2)c1=O (stereo unspecified) + CN1CCN(c2cc(C(=O)Nc3cc4cc(-c5cnn(C)c5)ccc4cn3)ccn2)CC1	label 1
O=C(c1cc(Cc2n[nH]c(=O)c3ccccc23)ccc1F)N1CCN(C(=O)C2CC2)CC1 + CNC(=O)c1ccc(Nc2nc(OC3CCCC3)c3c(-c4ccc5nc(C)oc5c4)c[nH]c3n2)c(OC)c1	label 0
Nc1ccn(C2OC(CO)C(O)C2(F)F)c(=O)n1 (stereo unspecified) + CNC(=O)c1ccc(Nc2nc(OC3CCCC3)c3c(-c4ccc5nc(C)oc5c4)c[nH]c3n2)c(OC)c1	label 0
CC(Nc1ccc2c(c1)OCCn1cc(N3C(=O)OCC3C(F)F)nc1-2)C(N)=O (stereo unspecified) + CN1CCN(c2cc(C(=O)Nc3cc4cc(-c5cnn(C)c5)ccc4cn3)ccn2)CC1	label 1
